- study-target: CRTH2 (Homo sapiens)
- Construct: endogenous in cells; host or cells: eosinophils in human whole blood
- Sequence (Q9Y5Y4 whole entry): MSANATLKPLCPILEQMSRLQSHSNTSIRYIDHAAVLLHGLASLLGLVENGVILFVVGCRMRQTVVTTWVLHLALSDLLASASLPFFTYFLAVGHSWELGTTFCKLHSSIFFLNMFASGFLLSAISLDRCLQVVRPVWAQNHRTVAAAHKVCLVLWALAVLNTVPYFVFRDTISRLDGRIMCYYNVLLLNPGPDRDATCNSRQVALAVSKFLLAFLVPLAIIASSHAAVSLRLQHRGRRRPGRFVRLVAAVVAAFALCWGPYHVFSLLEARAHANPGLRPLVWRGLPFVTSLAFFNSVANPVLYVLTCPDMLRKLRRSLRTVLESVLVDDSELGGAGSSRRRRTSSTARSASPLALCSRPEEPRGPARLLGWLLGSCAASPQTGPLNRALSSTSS
- experiment: DPBS CD11b antagonist assay (CD11b expression in eosinophils challenged with 15R-Methyl-PGD2)
- Format: cell-based
- assay-conditions: polymorphonuclear cells in PBS with CaCl2/MgCl2; agonist 15R-Methyl-PGD2 10 nM; eosinophils gated by flow cytometry
# IC50 listing for each entry below

Example molecules with recorded IC50:
| molecule-smiles | IC50 |
| --- | --- |
| Cc1ccc(S(=O)(=O)N(C)c2cccc(Cc3c4c(n(CC(=O)O)c3C)CC(C)(C)CC4=O)c2)cc1 | 100 to 500 nM |
| Cc1c(Cc2cccnc2S(=O)(=O)c2ccc(F)cc2F)c2c(n1CC(=O)O)CC(C)(C)CC2=O | 1 to 5 nM |
| Cc1c(Cc2cccnc2S(C)(=O)=O)c2c(n1CC(=O)O)CC(C)(C)CC2=O | 500 to 3000 nM |
| COc1ccc(S(=O)(=O)c2ncccc2Cc2c3c(n(CC(=O)O)c2C)CC(C)(C)CC3=O)cc1 | < 1 nM |
| CCOC(=O)Cn1c(C)c(Cc2cccnc2S(=O)(=O)c2ccc(C)cc2)c2c1CC(C)(C)CC2=O | 20 to 100 nM |

input: Query: IC50; subject: Cc1c(Cc2ccccc2NS(=O)(=O)c2ccccc2)c2c(n1CC(=O)O)CC(C)(C)CC2=O
output: < 1 nM

input: Query: IC50; subject: Cc1c(Cc2cc3ccccc3n2S(=O)(=O)N2CCOCC2)c2c(n1CC(=O)O)CC(C)(C)CC2=O
output: < 1 nM
